B1: KRT13 (parent)
chain: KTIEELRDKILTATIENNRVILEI

Variants of: B1
ASSAY_EXPLANATION: protein stability index of a GFP-peptide fusion (GPS, HEK-293T) (PSI 1-6); higher = more stable;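 also: lentivirally expressed fusions sorted by FACS into six bins by GFP to DsRed ratio, PSI derived from sequencing read proportions per bin multiplied by bin number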
MEASUREMENT_CONDITIONS: c terminus: a fixed tail appended
Just so you know, the groups by protein stability index go like this: lo: < 2; med: ≥ 2 and < 3; hi: ≥ 3

{"MUTANT": "I24E", "ANSWER_LABEL": "med"}
{"MUTANT": "V20I", "ANSWER_LABEL": "med"}
{"MUTANT": "T2A", "ANSWER_LABEL": "med"}
{"MUTANT": "T14E", "ANSWER_LABEL": "med"}
{"MUTANT": "K1H", "ANSWER_LABEL": "med"}
{"MUTANT": "N17P", "ANSWER_LABEL": "hi"}
{"MUTANT": "L11S", "ANSWER_LABEL": "med"}
{"MUTANT": "I10N", "ANSWER_LABEL": "lo"}
{"MUTANT": "L6N", "ANSWER_LABEL": "lo"}
{"MUTANT": "L22P", "ANSWER_LABEL": "hi"}
{"MUTANT": "T12R", "ANSWER_LABEL": "lo"}
{"MUTANT": "I3C", "ANSWER_LABEL": "hi"}
{"MUTANT": "L22T", "ANSWER_LABEL": "lo"}
{"MUTANT": "T12G", "ANSWER_LABEL": "lo"}
{"MUTANT": "L22D", "ANSWER_LABEL": "med"}
{"MUTANT": "I21E", "ANSWER_LABEL": "med"}
{"MUTANT": "V20T", "ANSWER_LABEL": "med"}
{"MUTANT": "I10C", "ANSWER_LABEL": "med"}
